- MEASUREMENT NOTES: Stability of cannabinoid compounds and Vitamin E components in Beverage 2 (AB Red) by LCMSMS
- Assay type: physicochemical
- REPORTED CONDITIONS: stored at 8° C., 90 days
ENDPOINT LABEL: Stability of Plant-Derived Cannabinoid Compounds in AB Red (µg/mL)
Number in µg/mL, nothing else.

Dear colleague, please send me the reported Stability of Plant-Derived Cannabinoid Compounds in AB Red for `CCCCCc1cc(O)c(C/C=C(\C)CCC=C(C)C)c(O)c1` when you can. 4.73

Dear colleague, please send me the reported Stability of Plant-Derived Cannabinoid Compounds in AB Red for CCCCCc1cc(O)c2c(c1)OC(C)(C)[C@@H]1CCC(C)=C[C@@H]21 [D9 THC, delta-9-tetrahydrocannabinol, reference compound] when you can. 13.0

Dear colleague, please send me the reported Stability of Plant-Derived Cannabinoid Compounds in AB Red for `CCCCCc1cc(O)c2c(c1)OC(C)(C)c1ccc(C)cc1-2` when you can. 2.80

Dear colleague, please send me the reported Stability of Plant-Derived Cannabinoid Compounds in AB Red for `C=C(C)[C@@H]1CCC(C)=C[C@H]1c1c(O)cc(CCCCC)c(C(=O)O)c1O` when you can. 1.68

Dear colleague, please send me the reported Stability of Plant-Derived Cannabinoid Compounds in AB Red for CCCCCc1cc(O)c2c(c1)OC(C)(CCC=C(C)C)C=C2 (stereo not drawn) when you can. 0.287

Dear colleague, please send me the reported Stability of Plant-Derived Cannabinoid Compounds in AB Red for CCCCCc1cc2c(c(O)c1C(=O)O)[C@@H]1C=C(C)CC[C@H]1C(C)(C)O2 [D9 THCA, delta-9-tetrahydrocannabinolic acid] when you can. 1.34

Dear colleague, please send me the reported Stability of Plant-Derived Cannabinoid Compounds in AB Red for CCCc1cc(O)c2c(c1)OC(C)(C)[C@@H]1CCC(C)=C[C@@H]21 [THCV, delta-9-tetrahydrocannabivarin] when you can. 3.10

Dear colleague, please send me the reported Stability of Plant-Derived Cannabinoid Compounds in AB Red for CCCCCc1cc(O)c2c(c1)OC1(C)CCC3C1C2C3(C)C (stereo not drawn) when you can. 0.501

Dear colleague, please send me the reported Stability of Plant-Derived Cannabinoid Compounds in AB Red for `C=C(C)[C@@H]1CCC(C)=C[C@H]1c1c(O)cc(CCC)cc1O` when you can. 0.196

---

- MEASUREMENT NOTES: Stability of cannabinoid compounds and Vitamin E components in Beverage 2 (AB Red) by LCMSMS
- Assay type: physicochemical
- REPORTED CONDITIONS: stored at 21-25° C., 1 days
Label Met when Stability of Plant-Derived Cannabinoid Compounds in AB Red is at or above 3 µg/mL; anything below gets Not met.

Does Stability of Plant-Derived Cannabinoid Compounds in AB Red meet or surpass 3 µg/mL for `CCCCCc1cc(O)c2c(c1)OC(C)(C)c1ccc(C)cc1-2` ? Not met

Does Stability of Plant-Derived Cannabinoid Compounds in AB Red meet or surpass 3 µg/mL for CCCc1cc(O)c2c(c1)OC(C)(C)[C@@H]1CCC(C)=C[C@@H]21 [THCV, delta-9-tetrahydrocannabivarin] ? Met

Does Stability of Plant-Derived Cannabinoid Compounds in AB Red meet or surpass 3 µg/mL for `CCCCCc1cc(O)c(C/C=C(\C)CCC=C(C)C)c(O)c1` ? Met

Does Stability of Plant-Derived Cannabinoid Compounds in AB Red meet or surpass 3 µg/mL for `C=C(C)[C@@H]1CCC(C)=C[C@H]1c1c(O)cc(CCCCC)c(C(=O)O)c1O` ? Not met

Does Stability of Plant-Derived Cannabinoid Compounds in AB Red meet or surpass 3 µg/mL for CCCCCc1cc2c(c(O)c1C(=O)O)[C@@H]1C=C(C)CC[C@H]1C(C)(C)O2 [D9 THCA, delta-9-tetrahydrocannabinolic acid] ? Not met

Does Stability of Plant-Derived Cannabinoid Compounds in AB Red meet or surpass 3 µg/mL for CCCCCc1cc(O)c2c(c1)OC1(C)CCC3C1C2C3(C)C (stereo not drawn) ? Not met

Does Stability of Plant-Derived Cannabinoid Compounds in AB Red meet or surpass 3 µg/mL for CCCCCc1cc(O)c2c(c1)OC(C)(CCC=C(C)C)C=C2 (stereo not drawn) ? Not met

Does Stability of Plant-Derived Cannabinoid Compounds in AB Red meet or surpass 3 µg/mL for `C=C(C)[C@@H]1CCC(C)=C[C@H]1c1c(O)cc(CCC)cc1O` ? Not met

Does Stability of Plant-Derived Cannabinoid Compounds in AB Red meet or surpass 3 µg/mL for CCCCCc1cc(O)c2c(c1)OC(C)(C)[C@@H]1CCC(C)=C[C@@H]21 [D9 THC, delta-9-tetrahydrocannabinol, reference compound] ? Met

Ref: patent US20260130395A1
